System: Bacillus subtilis DB104 (SP-AmyQ fusion secretion)
Method description: AmyQ secretion efficiency, weighted average sort bin (1 = best secretion, 10 = worst) (bin number (weighted average, 1-10)); higher = lower secretion efficiency
Test readout: AmyQ secretion efficiency
Just the number.

Please review the entries below; each comes with its answer.
MKLKSKLRKKCRRRSTVFVATTIANAPTH: 7.48
MKKKRKKFVAVAALSTTAFGAHASAKEI: 6.1
MAIIIAIIAAVIVIAALINVRNASPG: 8.6

What measured AmyQ secretion efficiency is associated with MMTIWIGMLAAAVLLLMVPKVSLADAA on Bacillus subtilis DB104 (SP-AmyQ fusion secretion)?
5.79

What measured AmyQ secretion efficiency is associated with MKRLLVSLRVWMVFLMNWVTPDRKTAAAAVD on Bacillus subtilis DB104 (SP-AmyQ fusion secretion)?
7.62

What measured AmyQ secretion efficiency is associated with MMSSISIFITCLLITLLTMGGMIASPASAAGT on Bacillus subtilis DB104 (SP-AmyQ fusion secretion)?
2.44

What measured AmyQ secretion efficiency is associated with MAAQTDYKKQVVGILLSLAFVLRRRKFSERHE on Bacillus subtilis DB104 (SP-AmyQ fusion secretion)?
7.65

What measured AmyQ secretion efficiency is associated with MGRIKTKITILLVLLLLLAGPYMYIN on Bacillus subtilis DB104 (SP-AmyQ fusion secretion)?
7.19

What measured AmyQ secretion efficiency is associated with MTSGTLWISLLFALTLIFTMAFSNMSAQAAGK on Bacillus subtilis DB104 (SP-AmyQ fusion secretion)?
2.62

What measured AmyQ secretion efficiency is associated with MAIIIAIIAAVIVIAALITFNRNASPG on Bacillus subtilis DB104 (SP-AmyQ fusion secretion)?
6.99

###

Test system: Bacillus subtilis DB104 (SP-AmyQ fusion secretion)
Method description: AmyQ secretion efficiency, weighted average sort bin (1 = best secretion, 10 = worst) (bin number (weighted average, 1-10)); higher = lower secretion efficiency
Test readout: AmyQ secretion efficiency
Just the number.

Please review the entries below; each comes with its answer.
MKKWMAGLFLAAAVLLCLMVPQQTTGTSGSVIQGASS: 4.56
MKRITINIITMFIAAAVISLTGTAEAAPK: 2.12
MSGSSFVLIVCIIFTSALFPTFSSVTAAQG: 1.04
MKKKLAAGLTASAIVGTTLVVTPKEAATI: 4.56

For MFSRKILLSSALSFGMLISAVPALAAGT , what is its reported AmyQ secretion efficiency?
3.61

For MKIRKILLSSALSFGMLISAVPALAAGR , what is its reported AmyQ secretion efficiency?
2.62

For MKRYKQRLRVWMVFLMNWVTPDRKTAAAAVY , what is its reported AmyQ secretion efficiency?
6.82

###

Tested on: Bacillus subtilis DB104 (SP-AmyQ fusion secretion)
Method description: AmyQ secretion efficiency, weighted average sort bin (1 = best secretion, 10 = worst) (bin number (weighted average, 1-10)); higher = lower secretion efficiency
Test readout: AmyQ secretion efficiency

Please review the entries below; each comes with its answer.
MKSCKQKQVCSLAAILLLIPSVSFAADS: 6.15
MLCVMMLLFSAIAAFTVTAQAKDQ: 6.83
MKQGKFSVFLILLLMLTLVVAPKEKAEAAEE: 2.62
MNKLKRLSMLTVMIASVFIFSSHILAAQY: 3.91
MKKVLMAFIICLSLILSVLAAPPSGAKTESV: 5.06
MKKIVSILFMFGLVMGFSQFQPSTGFAADK: 3.91
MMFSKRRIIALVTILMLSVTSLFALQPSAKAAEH: 1.68
MLFNTSFVSSLFISSAVLLSILLPSGQAHAQSA: 2.42

For MNLRKILLFIALFLMMLTVSAAPVLATSS , what is its reported AmyQ secretion efficiency?
1.67

For MRFTKVVGFLSVLGLAATTTFIVFPLTAQAEKA , what is its reported AmyQ secretion efficiency?
1.5

For MGLGKKLSVAVAASFMSLSISLPGVQVAEG , what is its reported AmyQ secretion efficiency?
3.6
